The origin of these recorded values is patent US6869957B1.

measured_on: NK-1 receptor (Homo sapiens)
Construct: endogenous in cells
Sequence (P25103 whole entry): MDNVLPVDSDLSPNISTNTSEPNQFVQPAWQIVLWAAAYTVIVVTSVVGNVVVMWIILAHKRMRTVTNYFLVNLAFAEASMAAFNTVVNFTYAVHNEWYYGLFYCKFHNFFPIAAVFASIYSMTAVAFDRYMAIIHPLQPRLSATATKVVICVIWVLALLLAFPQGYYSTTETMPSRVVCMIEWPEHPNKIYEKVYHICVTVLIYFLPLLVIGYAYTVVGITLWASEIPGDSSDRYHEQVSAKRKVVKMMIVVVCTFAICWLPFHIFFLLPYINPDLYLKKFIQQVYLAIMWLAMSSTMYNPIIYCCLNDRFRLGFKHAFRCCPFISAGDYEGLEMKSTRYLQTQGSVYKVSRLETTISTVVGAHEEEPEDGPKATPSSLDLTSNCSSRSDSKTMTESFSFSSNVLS
assay_text: NK-1 Receptor Binding Assay (125I-labeled substance P, IM9 cells)
cond: inhibits fifty percent of binding of 125I-substance P to IM9 cells
I'd be grateful if you could share measured pIC50 for these entries.
Give bare numbers, as −log10 of the molar value.

Worked cases, pIC50 given:
compound	pIC50
COc1ccccc1CN(CC(Cc1c[nH]c2ccccc12)NC(=O)CN1CCN(c2ccccc2)CC1)C(=O)CC(=O)O (centres unmarked) [Example 31]	8.04
COc1ccccc1CNCC(Cc1c[nH]c2ccc(Br)cc12)NC(=O)CN1CCC(N2CCCCC2)CC1 (centres unmarked) [Example 120]	5.60
COc1ccccc1CN(C[C@@H](Cc1c[nH]c2ccccc12)NC(=O)CN1CCN(C2CCCCC2)CC1)C(C)=O [Example 75]	9.74
CC(=O)N(Cc1cccc(F)c1)CC(Cc1c[nH]c2ccccc12)NC(=O)CN1CCN(c2ccccc2)CC1 (centres unmarked) [Example 20]	8.22

State recorded pIC50 for all listed compounds.
1. COc1ccccc1CN(CC(NC(=O)CN1CCC(N2CCCCC2)CC1)c1ccccc1)C(C)=O (centres unmarked) [Example 146]
2. COc1ccccc1CN(C[C@H](Cc1c[nH]c2ccccc12)NC(=O)CCC(=O)c1ccccc1)C(C)=O [Example 97]
3. CC(=O)N(Cc1ccccc1Cl)CC(Cc1c[nH]c2ccccc12)NC(=O)CN1CCN(C2CCCCC2)CC1 (centres unmarked) [Example 87]
4. COc1ccccc1CNCC(CC1CNc2ccccc21)NC(=O)CN1CCN(c2ccccc2)CC1 (mixture of isomers) [Example 137]
5. COc1ccccc1CN(CC(Cc1c[nH]c2ccccc12)NC(=O)CNCc1cccnc1)C(C)=O (centres unmarked) [Example 82]
6. CC(=O)N(Cc1ccccc1)CC(Cc1c[nH]c2ccc(F)cc12)NC(=O)CN1CCC(N2CCCCC2)CC1 (centres unmarked) [Example 119]
7. COc1ccccc1CNCC(Cc1c[nH]c2ccccc12)NC(=O)CN1CCC(N2CCCCC2)CC1 (centres unmarked) [Example 44]
8. COc1ccccc1CN(CC(Cc1c[nH]c2ccccc12)NC(=O)CN1CC=C(c2ccccc2)CC1)C(C)=O (centres unmarked) [Example 67]

Outgoing:
[6.38, 5.89, 9.11, 6.66, 7.89, 8.02, 7.60, 8.42]

---

Protein target, amino acids: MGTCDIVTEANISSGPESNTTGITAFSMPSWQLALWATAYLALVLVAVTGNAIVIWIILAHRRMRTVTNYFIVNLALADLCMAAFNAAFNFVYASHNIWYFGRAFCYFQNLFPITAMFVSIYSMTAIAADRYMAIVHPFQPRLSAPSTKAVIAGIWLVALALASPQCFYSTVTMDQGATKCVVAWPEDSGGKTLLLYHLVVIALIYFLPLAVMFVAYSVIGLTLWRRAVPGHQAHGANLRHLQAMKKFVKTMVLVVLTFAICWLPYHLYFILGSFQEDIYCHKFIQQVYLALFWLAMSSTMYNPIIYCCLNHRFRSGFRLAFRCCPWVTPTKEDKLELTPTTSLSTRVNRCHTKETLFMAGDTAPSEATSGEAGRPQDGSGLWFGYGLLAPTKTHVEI
metric_name: pIC50
Give bare numbers, as −log10 of the molar value.

The examples below pair each entry with its known result.
molecule	pIC50
CC(=O)N(CC(Cc1c[nH]c2ccccc12)NC(c1ccccc1)(c1ccccc1)c1ccccc1)c1ccccc1 (centres unmarked) [Example 167]	4.68
COc1ccccc1CN(CC(Cc1ccccc1)NC(=O)CN1CCC(N2CCCCC2)CC1)C(C)=O (centres unmarked) [Example 148]	5.07
COc1ccccc1CN(CC(Cc1c[nH]c2ccccc12)NC(=O)CCCc1ccccc1)C(C)=O (centres unmarked) [Example 94]	6.12

Provide pIC50 for all items below, preserving their order.
1. COc1ccccc1CN(CC(Cc1c[nH]c2ccccc12)NC(=O)CN1CCN(c2cccc(C(F)(F)F)c2)CC1)C(C)=O (centres unmarked) [Example 70]
2. COc1ccccc1CN(CC(CC1CN(C(C)=O)c2ccccc21)NC(=O)CN1CCN(c2ccccc2)CC1)C(C)=O (mixture of isomers) [Example 145]
3. COc1ccccc1CN(C[C@H](Cc1c[nH]c2ccccc12)NC(=O)CN1CCN(C2CCCCC2)CC1)C(C)=O [Example 76]
4. COc1ccccc1CN(CC(Cc1c[nH]c2ccccc12)NC(=O)CN1CCN(Cc2ccccc2)CC1)C(C)=O (centres unmarked) [Example 77]
5. CCOC(=O)N1CCN(CC(=O)NC(Cc2c[nH]c3ccccc23)CN(Cc2ccccc2OC)C(C)=O)CC1 (centres unmarked) [Example 80]

Outgoing:
[6.00, 5.72, 5.85, 6.20, 5.47]

---

measured_on: human NK-2 receptor (Homo sapiens)
pIC50: −log10 of the molar value.
Where pIC50 equals or exceeds 6, the correct label is 1; where it does not, the label is -1.

compound	category
COc1ccccc1CN(CC(Cc1c[nH]c2ccccc12)NC(=O)CN1CCC(NC(C)=O)(c2ccccc2)CC1)C(C)=O (centres unmarked)	-1
CC(=O)NC(Cc1c[nH]c2ccccc12)CN(Cc1ccccc1Cl)C(=O)CN1CCC(N2CCCCC2)CC1 (centres unmarked)	-1
COc1ccccc1CN(CC(Cc1ccccc1)NC(=O)CBr)C(C)=O (centres unmarked) [Example 161a]	-1

Incoming: Has CC(C)(C)OC(=O)NCC(Cc1c[nH]c2ccccc12)NC(=O)CN1CCN(c2ccccc2)CC1 (centres unmarked) a recorded pIC50 greater than or equal to 6?
Outgoing: -1

Incoming: Check this compound for pIC50 at or above 6: CN(CC(Cc1c[nH]c2ccccc12)NC(=O)CN1CCN(c2ccccc2)CC1)C(=O)c1ccccc1 (centres unmarked)
Outgoing: -1

Incoming: Could you verify whether the entry COc1ccccc1CN(CC(Cc1c[nH]c2ccccc12)NC(=O)CN1CCN(c2ccccc2)CC1)S(C)(=O)=O (centres unmarked) shows pIC50 of no less than 6?
Outgoing: 1

Incoming: Answer whether pIC50 of CC(=O)N(Cc1ccccc1Cl)CC(Cc1c[nH]c2ccccc12)NC(=O)CN1CCC(N2CCCCC2)CC1 (racemic) is greater than or equal to 6.
Outgoing: -1

Incoming: Exam item: decide whether the reported pIC50 for COc1ccccc1CN(CC(Cc1c[nH]c2ccccc12)NC(=O)CN1CCC(N(C)C)CC1)C(C)=O (centres unmarked) is at least 6.
Outgoing: -1

Incoming: Quick check: does COc1ccccc1CN(CC(Cc1c[nH]c2ccccc12)NC(=O)CN1CCN(c2ccccc2)CC1)C(=O)CNC(=O)OC(C)(C)C (centres unmarked) have pIC50 greater than or equal to 6?
Outgoing: 1

Incoming: Please check the record COc1ccccc1CNCC(CC1CNc2ccccc21)NC(=O)CN1CCN(c2ccccc2)CC1 (mixture of isomers) and state if its pIC50 is at or above 6.
Outgoing: -1

Incoming: Could you verify whether the entry COc1ccccc1CN(CC(Cc1c[nH]c2ccccc12)NC(=O)CN1CCN(c2ccccc2)CC1)C(C)=O (racemic) shows pIC50 of no less than 6?
Outgoing: -1

Incoming: Dear colleague, could you confirm whether COc1ccccc1CN(CC(Cc1c[nH]c2ccccc12)NC(=O)CNCc1ccncc1)C(C)=O (centres unmarked) has pIC50 at or above 6?
Outgoing: -1

Incoming: Hi team, for CCC(=O)N(Cc1ccccc1OC)CC(Cc1c[nH]c2ccccc12)NC(=O)CN1CCN(c2ccccc2)CC1 (centres unmarked) , is the recorded pIC50 at or above 6?
Outgoing: 1

Incoming: Given the entry CC(=O)N(C)CC(Cc1c[nH]c2ccccc12)NC(c1ccccc1)(c1ccccc1)c1ccccc1 (centres unmarked) , answer whether its pIC50 meets or surpasses 6.
Outgoing: -1

Incoming: Does pIC50 meet or surpass 6 for CCCCCCN(CC(Cc1c[nH]c2ccccc12)NC(c1ccccc1)(c1ccccc1)c1ccccc1)C(C)=O (centres unmarked) ?
Outgoing: -1

Incoming: Decide: pIC50 of COc1ccccc1CN(CC(Cc1c[nH]c2ccccc12)NC(=O)CN1CCN(c2ccccc2)CC1)C(=O)CN(C)C (centres unmarked) >= 6?
Outgoing: 1

Incoming: Threshold query (pIC50 >= 6) on COc1ccccc1CN(C=O)CC(Cc1c[nH]c2ccccc12)NC(=O)CN1CCN(c2ccccc2)CC1 (centres unmarked)
Outgoing: 1

Incoming: Please indicate if the recorded pIC50 for CC(=O)N(CCc1ccccc1)CC(Cc1c[nH]c2ccccc12)NC(c1ccccc1)(c1ccccc1)c1ccccc1 (centres unmarked) meets or exceeds 6.
Outgoing: -1

Incoming: Threshold query (pIC50 >= 6) on CN(CC(Cc1c[nH]c2ccccc12)NC(=O)CN1CCN(C2CCCCC2)CC1)C(=O)c1ccccc1 (centres unmarked)
Outgoing: -1

Incoming: Can COc1ccccc1CN(CC(N)Cc1cn(C)c2ccccc12)C(C)=O (centres unmarked) be said to have pIC50 at or above 6?
Outgoing: -1

Incoming: Could you please find out whether COc1ccccc1CN(CC(Cc1cccc2ccccc12)NC(=O)CN1CCN(c2ccccc2)CC1)C(C)=O (centres unmarked) has pIC50 that meets 6 or exceeds it?
Outgoing: 1
